system: P. falciparum female gametocytes; test: P. falciparum Dual Gamete Formation Assay (PfDGFA), female readout (Pfs25-positive female gametes); assay type: cell-based, Plasmodium falciparum NF54; details: HepG2 Tox50 versus female IC50
Please mark y if the recorded Selectivity ratio F is equal to or greater than 2, and n if it falls below.

Past entries and their recorded results:
# structure notation, assigned label
data = [
    ("CN1CCN(CCCNCc2ccc(Nc3nccc(Nc4ccc(Oc5ccccc5)cc4)n3)cc2)CC1", "n"),
    ("CN(C)CCNCc1ccc(-c2ccc3c(Nc4ccc(Cl)cc4F)ccnc3c2)o1", "y"),
    ("COc1ccc2nc(-c3cc(-c4ccc(NC(=O)C(C)C)cc4)cnc3N)[nH]c2c1", "n"),
    ("Cc1cccc2nc(-c3ccc(-c4cccc(CNCCN5CCNCC5)c4)cc3)[nH]c12.O=C(O)C(F)(F)F", "y"),
    ("COc1ccc(CNC2CCN(C)CC2)cc1-c1ccc(S(=O)(=O)NCc2ccccc2)c(F)c1.O=C(O)C(F)(F)F", "n"),
]

Is Selectivity ratio F for `O=C(O)C(F)(F)F.O=c1[nH]ccc2nc(N[C@@H]3CCNC3)nc(Nc3cc(Cl)cc(Cl)c3)c12` at or above 2?
n

Could you please find out whether `Cc1ccc(S(=O)(=O)N(CCCNCc2cccc(O)c2)c2ccccc2)cc1` has Selectivity ratio F that meets 2 or exceeds it?
y

I'd appreciate it if you could say whether `Cl.O=C1Nc2ccc3ncccc3c2/C1=C/Nc1ccc(N2CCN(CCO)CC2)cc1` has Selectivity ratio F at least equal to 2.
y
